Entry source: patent US12570671B2

In this section we review reported DC50 values for a set of molecules.
Biological target: Ikaros (Homo sapiens, UniProt Q13422+Q96SW2)
Sequence (Q13422 whole entry, one chain of several): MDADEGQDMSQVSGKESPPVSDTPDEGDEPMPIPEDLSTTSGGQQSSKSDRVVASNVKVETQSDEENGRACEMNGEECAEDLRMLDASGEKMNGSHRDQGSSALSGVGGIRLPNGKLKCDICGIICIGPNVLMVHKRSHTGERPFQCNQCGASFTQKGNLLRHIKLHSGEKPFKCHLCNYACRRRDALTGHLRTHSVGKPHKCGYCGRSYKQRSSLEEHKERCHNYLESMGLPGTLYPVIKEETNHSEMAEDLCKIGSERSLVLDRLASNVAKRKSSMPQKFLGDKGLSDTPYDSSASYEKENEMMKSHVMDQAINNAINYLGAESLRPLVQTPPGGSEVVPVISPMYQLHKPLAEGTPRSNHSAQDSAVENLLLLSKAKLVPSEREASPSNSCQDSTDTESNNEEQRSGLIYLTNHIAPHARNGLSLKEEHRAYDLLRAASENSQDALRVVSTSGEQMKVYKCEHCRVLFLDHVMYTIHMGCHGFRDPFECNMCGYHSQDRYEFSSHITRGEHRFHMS
Assay: Helios Cellular Degradation Assay (Ikaros readout)
Assay type: cell-based
Design: endogenous in cells; host or cells: Jurkat
Conditions: Jurkat cells, 72 h incubation, Ikaros-Alexa488 antibody staining, flow cytometry; read-out: Ikaros Jurkat IC50

These solved cases illustrate the format of a correct answer.
CC(C)c1cc(N)nc(-c2ccc3c(c2)CN(C2CCC(=O)NC2=O)C3=O)c1C#N (centres unmarked)
≥ 10 µM
Nc1cc(N2CCN(Cc3ccccc3)CC2)cc(-c2ccc3c(c2)CN(C2CCC(=O)NC2=O)C3=O)n1 (centres unmarked)
≥ 10 µM
O=C1CCC(N2Cc3cc(-c4nccc5ccc(F)cc45)ccc3C2=O)C(=O)N1 (centres unmarked)
0.14 µM
Cc1ccc2c(-c3ccc4c(c3)CN(C3CCC(=O)NC3=O)C4=O)nccc2c1 (centres unmarked)
0.13 µM
COC(=O)c1ccc2cnc(-c3ccc4c(c3)CN(C3CCC(=O)NC3=O)C4=O)nc2c1 (centres unmarked)
> 20 µM

Can you share its DC50? I mean this molecule: Cc1cc(O)nc(-c2ccc3c(c2)CN(C2CCC(=O)NC2=O)C3=O)c1 (centres unmarked)
≥ 10 µM

Can you share its DC50? I mean this molecule: Nc1ccc(C2CC2)c(-c2ccc3c(c2)CN(C2CCC(=O)NC2=O)C3=O)n1 (centres unmarked)
≥ 20 µM

Can you share its DC50? I mean this molecule: Nc1ccc2cnc(-c3ccc4c(c3)CN(C3CCC(=O)NC3=O)C4=O)cc2c1 (centres unmarked)
≥ 20 µM

Can you share its DC50? I mean this molecule: COc1nc2ccccc2nc1-c1ccc2c(c1)CN(C1CCC(=O)NC1=O)C2=O (centres unmarked)
≥ 20 µM

Can you share its DC50? I mean this molecule: CC(=O)Nc1nc(-c2ccc3c(c2)CN(C2CCC(=O)NC2=O)C3=O)cc(C)c1C (centres unmarked)
> 10 µM

Can you share its DC50? I mean this molecule: O=C1CCC(N2Cc3cc(-c4cc5ccccc5cn4)ccc3C2=O)C(=O)N1 (centres unmarked)
3 µM

Can you share its DC50? I mean this molecule: COc1c(C)cc(-c2ccc3c(c2)CN(C2CCC(=O)NC2=O)C3=O)nc1N (centres unmarked)
≥ 10 µM

Can you share its DC50? I mean this molecule: Nc1cn2nc(-c3ccc4c(c3)CN(C3CCC(=O)NC3=O)C4=O)ccc2n1 (centres unmarked)
> 20 µM

Can you share its DC50? I mean this molecule: Cc1cc(C)nc(-c2ccc3c(c2)CN(C2CCC(=O)NC2=O)C3=O)c1 (centres unmarked)
≥ 20 µM

Can you share its DC50? I mean this molecule: O=C1CCC(N2Cc3cc(-c4cc(-c5ccccc5)ccn4)ccc3C2=O)C(=O)N1 (centres unmarked)
0.034 µM

Can you share its DC50? I mean this molecule: Nc1nc2ccccc2nc1-c1ccc2c(c1)CN(C1CCC(=O)NC1=O)C2=O (centres unmarked)
> 20 µM

Can you share its DC50? I mean this molecule: COc1ccc2nc(-c3ccc4c(c3)CN(C3CCC(=O)NC3=O)C4=O)ccc2c1 (centres unmarked)
> 20 µM

----------
In this section we review reported DC50 values for a set of compounds.
Biological target: Helios (Homo sapiens, UniProt Q96SW2+Q9UKS7)
Sequence (Q9UKS7 whole entry): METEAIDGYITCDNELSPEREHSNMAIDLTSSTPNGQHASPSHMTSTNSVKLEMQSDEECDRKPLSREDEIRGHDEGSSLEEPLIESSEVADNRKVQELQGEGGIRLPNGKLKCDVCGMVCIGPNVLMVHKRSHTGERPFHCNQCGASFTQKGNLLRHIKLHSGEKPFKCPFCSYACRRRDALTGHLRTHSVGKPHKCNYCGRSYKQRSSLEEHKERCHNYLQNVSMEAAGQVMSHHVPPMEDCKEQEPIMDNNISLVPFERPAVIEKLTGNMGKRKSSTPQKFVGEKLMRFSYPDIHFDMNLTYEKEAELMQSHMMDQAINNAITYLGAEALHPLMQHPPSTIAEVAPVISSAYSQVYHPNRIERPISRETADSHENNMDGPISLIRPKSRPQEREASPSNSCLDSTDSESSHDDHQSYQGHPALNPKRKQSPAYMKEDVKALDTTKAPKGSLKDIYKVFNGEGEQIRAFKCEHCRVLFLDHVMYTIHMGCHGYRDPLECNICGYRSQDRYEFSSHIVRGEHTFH
Sequence (Q96SW2 whole entry): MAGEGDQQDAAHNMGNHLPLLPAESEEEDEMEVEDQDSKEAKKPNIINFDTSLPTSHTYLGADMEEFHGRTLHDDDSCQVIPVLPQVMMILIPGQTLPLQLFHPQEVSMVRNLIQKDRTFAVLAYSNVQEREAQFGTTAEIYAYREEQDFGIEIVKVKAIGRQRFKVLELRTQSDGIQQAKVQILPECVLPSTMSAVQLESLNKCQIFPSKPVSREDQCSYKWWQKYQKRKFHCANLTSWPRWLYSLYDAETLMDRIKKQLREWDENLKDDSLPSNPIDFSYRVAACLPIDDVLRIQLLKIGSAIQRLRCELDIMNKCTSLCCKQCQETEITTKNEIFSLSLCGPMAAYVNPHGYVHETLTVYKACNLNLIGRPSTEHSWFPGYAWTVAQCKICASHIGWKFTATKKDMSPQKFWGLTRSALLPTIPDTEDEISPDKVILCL
Sequence (Q16531 whole entry partner): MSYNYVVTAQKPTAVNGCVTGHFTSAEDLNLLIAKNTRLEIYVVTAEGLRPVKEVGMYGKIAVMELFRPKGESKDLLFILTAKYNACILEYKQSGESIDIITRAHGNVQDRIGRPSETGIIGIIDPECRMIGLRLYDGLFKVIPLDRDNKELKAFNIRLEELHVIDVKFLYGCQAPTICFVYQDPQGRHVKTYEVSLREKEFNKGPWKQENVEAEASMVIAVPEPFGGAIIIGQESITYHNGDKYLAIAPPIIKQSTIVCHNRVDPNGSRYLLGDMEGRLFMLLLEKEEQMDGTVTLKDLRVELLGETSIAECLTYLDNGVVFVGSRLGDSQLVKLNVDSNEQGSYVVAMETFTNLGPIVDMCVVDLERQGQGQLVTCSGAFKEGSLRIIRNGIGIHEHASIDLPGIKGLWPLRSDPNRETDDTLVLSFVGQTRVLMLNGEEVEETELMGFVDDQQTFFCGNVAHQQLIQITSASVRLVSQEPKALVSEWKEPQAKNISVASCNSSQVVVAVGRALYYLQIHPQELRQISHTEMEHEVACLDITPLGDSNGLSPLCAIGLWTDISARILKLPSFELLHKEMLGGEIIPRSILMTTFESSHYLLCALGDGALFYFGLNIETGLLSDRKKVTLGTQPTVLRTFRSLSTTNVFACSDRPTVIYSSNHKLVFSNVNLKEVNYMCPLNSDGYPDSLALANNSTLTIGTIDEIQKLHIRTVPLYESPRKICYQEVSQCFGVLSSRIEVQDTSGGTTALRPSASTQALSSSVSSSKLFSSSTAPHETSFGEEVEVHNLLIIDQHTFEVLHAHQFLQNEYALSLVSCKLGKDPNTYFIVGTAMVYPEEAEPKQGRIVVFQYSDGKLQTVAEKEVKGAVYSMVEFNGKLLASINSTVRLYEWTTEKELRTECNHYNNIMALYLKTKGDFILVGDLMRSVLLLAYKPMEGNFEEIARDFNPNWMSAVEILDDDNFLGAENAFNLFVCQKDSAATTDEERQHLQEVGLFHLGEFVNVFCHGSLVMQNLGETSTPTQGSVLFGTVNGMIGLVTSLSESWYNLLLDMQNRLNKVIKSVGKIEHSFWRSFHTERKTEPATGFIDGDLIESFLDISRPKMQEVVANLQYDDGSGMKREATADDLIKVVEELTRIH
Assay: Helios Cellular Degradation Assay (Helios readout)
Assay type: cell-based
Set-up: endogenous in cells; host or cells: Jurkat
Details: Jurkat cells, 72 h incubation, Helios-PE antibody staining, flow cytometry; read-out: Helios Jurkat IC50
Write the answer as a number in nM, unit excluded.

These solved cases illustrate the format of a correct answer.
CN(C)C(=O)c1c(-c2ccc3c(c2)CN(C2CCC(=O)NC2=O)C3=O)nc(N)c2ccccc12 (centres unmarked)
450
N#Cc1cnc(-c2ccc3c(c2)CN(C2CCC(=O)NC2=O)C3=O)c2ccccc12 (centres unmarked)
20
Nc1nc(-c2ccc3c(c2)CN(C2CCC(=O)NC2=O)C3=O)nc2nc[nH]c12 (centres unmarked)
98
Nc1ccc(Br)c(-c2ccc3c(c2)CN(C2CCC(=O)NC2=O)C3=O)n1 (centres unmarked)
470
COc1cc(C)cc(-c2ccc3c(c2)CN(C2CCC(=O)NC2=O)C3=O)n1 (centres unmarked)
190

Can you share its DC50? I mean this compound: Cc1cc(-c2ccc3c(c2)CN(C2CCC(=O)NC2=O)C3=O)nc2ccccc12 (centres unmarked)
9

Can you share its DC50? I mean this compound: Nc1cc(C(F)(F)F)cc(-c2ccc3c(c2)CN(C2CCC(=O)NC2=O)C3=O)n1 (centres unmarked) [Example 163]
90

Can you share its DC50? I mean this compound: `O=C1CC[C@H](N2Cc3cc(-c4ccc5cccnc5n4)ccc3C2=O)C(=O)N1`
50

Can you share its DC50? I mean this compound: O=C1CCC(N2Cc3cc(-c4ccc5cc(O)ccc5n4)ccc3C2=O)C(=O)N1 (centres unmarked)
19

Can you share its DC50? I mean this compound: O=C1CCC(N2Cc3cc(-c4nc5ccccc5nc4Cl)ccc3C2=O)C(=O)N1 (centres unmarked)
17100

Can you share its DC50? I mean this compound: CN(C)Nc1cccc(-c2ccc3c(c2)CN(C2CCC(=O)NC2=O)C3=O)n1 (centres unmarked)
920

Can you share its DC50? I mean this compound: CCNc1cc(C)cc(-c2ccc3c(c2)CN(C2CCC(=O)NC2=O)C3=O)n1 (centres unmarked)
40
